The measurements presented in this section are drawn from patent US20240116985A1.

# experiment_description: Solubility in PBS
# Assay type: physicochemical
# experimental_setup: Solubility (uM)
measurement_type: Solubility (µM)
Report the value in µM with no unit label.

Below are worked cases with known answers.
| molecule | unit_annotation | Solubility |
| --- | --- | --- |
| CCNC(=O)[C@H](CCC(N)=O)NC(=O)[C@H](Cc1csc2ccccc12)NC(=O)[C@H](Cc1ccccc1Cl)NC(=O)[C@]12CCN(C1)C(=O)OCCCC=CCCCC1(CCCC=CC[C@]3(CCCN3C(C)=O)C(=O)N[C@@H](CC(=O)O)C(=O)N[C@@H](CC(C)(C)C)C(=O)N1)C(=O)N[C@@H](CC(=O)O)C(=O)N[C@@H](CC(=O)O)C(=O)N[C@@H](C)C(=O)N[C@@H](C)C(=O)N[C@@H](Cc1ccccc1)C(=O)N[C@@H](CC(N)=O)C(=O)N2 (some centres unmarked) [I-1079] | µM | 45 |
| CC(=O)N1CCC[C@]12CC=CCCCC1(CCCC=CCCCOC(=O)N3CC[C@@](C(=O)N[C@@H](Cc4ccsc4)C(=O)N[C@@H](Cc4csc5ccccc45)C(=O)N[C@@H](CCC(N)=O)C(N)=O)(C3)NC(=O)[C@H](Cc3ccc(C(F)(F)F)cc3)NC(=O)[C@H](Cc3ccccc3)NC(=O)[C@H](C)NC(=O)[C@H](C)NC(=O)[C@H](CC(=O)O)NC(=O)[C@H](CC(=O)O)NC1=O)NC(=O)[C@H](CC(C)(C)C)NC(=O)[C@H](CC(=O)O)NC2=O (some centres unmarked) [I-1365] | µM | 22 |

Prompt line: Can you share its Solubility? I mean this molecule: COCCOCCOCCOCCC(=O)NCCCC[C@H](NC(=O)[C@H](CCC(N)=O)NC(=O)[C@H](Cc1csc2ccccc12)NC(=O)[C@H](Cc1ccsc1)NC(=O)[C@]12CCN(C1)C(=O)OCCCC=CCCCC1(CCCC=CC[C@]3(CCCN3C(C)=O)C(=O)N[C@@H](CC(=O)O)C(=O)N[C@@H](CC(C)(C)C)C(=O)N1)C(=O)N[C@@H](CC(=O)O)C(=O)N[C@@H](CC(=O)O)C(=O)N[C@@H](C)C(=O)N[C@@H](C)C(=O)N[C@@H](Cc1ccccc1)C(=O)N[C@@H](CC(N)=O)C(=O)N2)C(N)=O (some centres unmarked) [I-912]
Response line: 45

Prompt line: Report Solubility for CC(=O)N1CCC[C@]12CC=CCCCC1(CCCC=CCCCOC(=O)N3CC[C@@](C(=O)N[C@@H](Cc4ccsc4)C(=O)N[C@@H](Cc4csc5ccccc45)C(=O)N[C@@H](CCC(N)=O)C(N)=O)(C3)NC(=O)[C@H](CC(N)=O)NC(=O)[C@H](Cc3ccccc3)NC(=O)[C@H](CCCCNC(=O)C34CC5CC(CC(C5)C3)C4)NC(=O)[C@H](C)NC(=O)[C@H](CC(=O)O)NC(=O)[C@H](CC(=O)O)NC1=O)NC(=O)[C@H](CC(C)(C)C)NC(=O)[C@H](CC(=O)O)NC2=O (some centres unmarked) [I-899] please.
Response line: 40

Prompt line: Given CC(=O)N1CCC[C@]12CC=CCCCC1(CCCC=CCCCOC(=O)N3CC[C@@](C(=O)N[C@@H](Cc4ccsc4)C(=O)N[C@@H](Cc4csc5ccccc45)C(=O)N[C@@H](CCC(N)=O)C(=O)N[C@@H](CCCCNC(=O)c4cccc5ccccc45)C(N)=O)(C3)NC(=O)[C@H](CC(N)=O)NC(=O)[C@H](Cc3ccccc3)NC(=O)[C@H](C)NC(=O)[C@H](C)NC(=O)[C@H](CC(=O)O)NC(=O)[C@H](CC(=O)O)NC1=O)NC(=O)[C@H](CC(C)(C)C)NC(=O)[C@H](CC(=O)O)NC2=O (some centres unmarked) [I-916] , state its recorded Solubility.
Response line: 45
